Just for reference, PubChem BioAssay AID1275 is where these values come from.

# subjectOfTest: Neutrophil cytosol factor 1 (Homo sapiens)
# experimentDescription: blockers of ligand binding to p47phox – biochemical, NADPH oxidase regulatory subunit, fluorescence polarization, dose response (AID 1275)
# settings: p47phox binding inhibition
Calls of active or inactive are those of the source. No rule for the calls is given here.
Outcome codes: TRUE for active, FALSE for inactive

>>> assignedcategory("O=C1OCC=C1NNC(=O)c1cccnc1")
"FALSE"
>>> assignedcategory("CCN=C(Nc1ccc2c(c1)OCO2)SC1CC(=O)N(c2ccccc2F)C1=O (stereo unspecified)")
"FALSE"
>>> assignedcategory("CCN(CC)c1ccc(/C=N/c2sc3c(c2C#N)C2CCN3CC2)c(O)c1")
"TRUE"
>>> assignedcategory("CC(=O)N1C(=O)C2(C(C#N)=C(N)Oc3n[nH]c(-c4ccccn4)c32)c2ccccc21 (stereo unspecified)")
"FALSE"
>>> assignedcategory("O=c1oc2ccccc2c(O)c1/C=C1\\C=Nc2ccccc21")
"FALSE"
>>> assignedcategory("Cc1ccc(C(=O)C2=C(O)C(=O)N(Cc3ccccc3)C2c2cccnc2)o1 (stereo unspecified)")
"FALSE"
>>> assignedcategory("O=C(N=Nc1c(O)n(C2OC(=O)c3ccccc32)c2ccccc12)c1ccco1 (stereo unspecified)")
"FALSE"
>>> assignedcategory("CCOC(=O)C1=C(O)c2ccccc2C(=O)/C1=C\\c1ccc(CC)cc1")
"FALSE"
>>> assignedcategory("C=CCNC(=S)N1CCN(CCN=CC2=C(O)CC(c3ccco3)CC2=O)CC1 (stereo unspecified)")
"FALSE"
>>> assignedcategory("N#CC1=C(N)OC2=C(CN(Cc3ccccc3)C/C2=C\\c2cccnc2)C1c1cccnc1 (stereo unspecified)")
"TRUE"
>>> assignedcategory("O=c1[nH]c(O)c(/C=C2/C=CC(c3cc(Cl)ccc3Cl)=N2)c(=O)[nH]1")
"FALSE"
>>> assignedcategory("CCc1cc2c(=O)nc3n(c2s1)Cc1ccccc1/C3=C(/O)c1ccccc1Cl")
"FALSE"
>>> assignedcategory("Cc1nc2ccccc2n2c(O)c(CC(=O)O)cc12")
"FALSE"
>>> assignedcategory("COCc1cc(C)nc(N/N=C/c2ccc(-c3ccc(Cl)cc3[N+](=O)[O-])o2)c1C#N")
"FALSE"
>>> assignedcategory("COc1ccc(N=C2O/C(=C/c3sc(=S)n(CC4CCCO4)c3O)N=C2C#N)cc1 (stereo unspecified)")
"TRUE"
>>> assignedcategory("Nc1cc(Cl)ccc1N1C(=O)CCC1=O")
"FALSE"
>>> assignedcategory("CCOc1ccc(C2CC(c3c(O)n(C)c(=O)n(C)c3=O)=NN2)cc1 (stereo unspecified)")
"FALSE"
>>> assignedcategory("CCOc1ccc(-n2c(SCC(=O)Nc3ccc(Br)cc3)nc3n[nH]c(C)c3c2=N)cc1")
"FALSE"
>>> assignedcategory("Cc1ccc(/C(CSc2nccn2-c2ncc(C(F)(F)F)cc2Cl)=N\\O)cc1")
"FALSE"
>>> assignedcategory("C(=N\\Nc1nc(Nc2ccccc2)nc(N2CCCCC2)n1)/c1ccco1")
"FALSE"
>>> assignedcategory("CCOC(=O)c1ccc(N2C(=O)CC(Nc3ccc(O)cc3)C2=O)cc1 (stereo unspecified)")
"TRUE"
>>> assignedcategory("O=c1[nH]c(=S)[nH]c(O)c1N=Nc1ccc(-c2ccccc2)cc1[N+](=O)[O-]")
"TRUE"
>>> assignedcategory("O=[N+]([O-])c1ccc(N/N=C\\c2cccn2-c2ccccc2)nc1")
"FALSE"
>>> assignedcategory("CCOC(=O)C1=C(O)CSC1=Nc1ccc(Cl)cc1")
"FALSE"
>>> assignedcategory("O=[N+]([O-])c1ccc(N=Cc2c(O)ccc3ccccc23)cc1")
"TRUE"
>>> assignedcategory("Cc1ccc(NC(=O)Cn2c(O)c(N=NC(=O)c3cc4ccccc4cc3O)c3ccccc32)cc1")
"FALSE"
